This collection of values is drawn from ChEMBL document CHEMBL1139157.

Consider the following molecules; for each one, report its pKi.
- target.desc: Voltage-gated inwardly rectifying potassium channel KCNH2 (Homo sapiens, UniProt Q12809)
- Sequence (Q12809 whole entry): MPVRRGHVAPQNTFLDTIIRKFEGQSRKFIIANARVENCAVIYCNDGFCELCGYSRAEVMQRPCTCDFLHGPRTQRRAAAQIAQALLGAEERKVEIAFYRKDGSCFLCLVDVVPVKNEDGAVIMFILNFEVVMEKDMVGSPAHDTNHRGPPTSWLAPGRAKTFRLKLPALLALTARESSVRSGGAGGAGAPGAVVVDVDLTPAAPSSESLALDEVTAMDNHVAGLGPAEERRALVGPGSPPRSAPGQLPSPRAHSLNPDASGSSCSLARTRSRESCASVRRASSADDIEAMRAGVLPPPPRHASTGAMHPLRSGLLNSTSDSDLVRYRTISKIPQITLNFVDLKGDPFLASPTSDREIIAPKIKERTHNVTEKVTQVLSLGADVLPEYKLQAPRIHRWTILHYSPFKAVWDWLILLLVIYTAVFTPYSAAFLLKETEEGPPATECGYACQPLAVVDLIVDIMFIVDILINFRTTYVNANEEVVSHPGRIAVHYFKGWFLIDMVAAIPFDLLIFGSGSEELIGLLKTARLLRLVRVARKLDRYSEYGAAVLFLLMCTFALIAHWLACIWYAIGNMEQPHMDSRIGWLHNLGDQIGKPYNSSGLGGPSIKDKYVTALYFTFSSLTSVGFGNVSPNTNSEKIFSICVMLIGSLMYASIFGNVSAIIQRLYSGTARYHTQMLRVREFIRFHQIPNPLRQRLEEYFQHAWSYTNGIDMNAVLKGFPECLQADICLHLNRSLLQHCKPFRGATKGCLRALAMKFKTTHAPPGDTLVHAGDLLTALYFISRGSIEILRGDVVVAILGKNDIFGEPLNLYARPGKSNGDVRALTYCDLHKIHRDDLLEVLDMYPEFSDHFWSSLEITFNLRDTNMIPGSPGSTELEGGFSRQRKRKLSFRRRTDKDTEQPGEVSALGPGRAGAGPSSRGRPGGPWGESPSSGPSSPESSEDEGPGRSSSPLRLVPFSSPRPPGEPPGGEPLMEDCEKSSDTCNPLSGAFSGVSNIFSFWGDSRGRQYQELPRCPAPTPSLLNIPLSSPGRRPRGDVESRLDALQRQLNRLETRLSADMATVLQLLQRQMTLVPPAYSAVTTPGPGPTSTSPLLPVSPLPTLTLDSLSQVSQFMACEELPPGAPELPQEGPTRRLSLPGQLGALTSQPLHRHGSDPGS
Give bare numbers, as −log10 of the molar value.

The following molecules have reported results that may help.
INSERT INTO measurements (molecule, measured_parameter, result) VALUES
  ('O=S(=O)(c1ccc(F)cc1)c1ccc(/C=C/c2ccc(F)cc2)cn1', 'pKi', 5.48),
  ('[O-][S+](c1ccccc1)c1ccc(/C=C/c2ccc(F)cc2F)nc1 (single isomer, unassigned; form 1)', 'pKi', 5.38),
  ('O=S(=O)(c1ccc(/C=C/c2ccncc2)nc1)c1ccccc1F', 'pKi', 5.38),
  ('N#Cc1cc(F)ccc1/C=C/c1ccc(S(=O)(=O)c2ccccc2F)cn1', 'pKi', 5.82),
  ('Cc1cc(F)ccc1/C=C/c1ccc(S(=O)(=O)c2ccccc2F)cn1', 'pKi', 5.30);

Below are some molecules; for each one, tell me its pKi.
1. O=S(=O)(c1ccc(/C=C/c2ccc(F)cc2Cl)nc1)c1ccccc1F
2. O=S(=O)(c1ccc(/C=C/c2ccc(F)cc2O)nc1)c1ccccc1F
3. O=S(=O)(c1ccc(F)cc1)c1ccc(CCc2ccc(F)cc2)cn1

Ans.
1: 5.32; 2: 5.68; 3: 5.16

Below are some molecules; for each one, tell me its pKi.
1. [O-][S+](c1ccccc1)c1ccc(/C=C/c2ccc(F)cc2)nc1 (stereo not given)
2. [O-][S+](c1ccccc1)c1ccc(/C=C/c2ccc(F)cc2F)nc1 (stereo in doubt; 30)
3. O=S(=O)(c1ccc(F)cc1)C1(F)CCN(CCc2ccc(F)cc2F)CC1
4. [O-][S+](c1ccccc1)c1ccc(/C=C/c2ccc(F)cc2F)nc1 (single isomer, unassigned; form 2)
5. [O-][S+](c1ccc(/C=C/c2ccc(F)cc2)nc1)c1ccccc1F (stereo not given)
6. O=S(=O)(c1ccc(/C=C/c2ccccc2O)nc1)c1ccccc1F

Ans.
1: 5.41; 2: 5.55; 3: 5.25; 4: 5.19; 5: 5.54; 6: 5.85

* * *

- target.desc: Serotonin 2 receptors; 5-HT2a & 5-HT2c (Homo sapiens) (UniProt P28223+P28335)
- Sequence (P28223 whole entry, looked up, one chain of several): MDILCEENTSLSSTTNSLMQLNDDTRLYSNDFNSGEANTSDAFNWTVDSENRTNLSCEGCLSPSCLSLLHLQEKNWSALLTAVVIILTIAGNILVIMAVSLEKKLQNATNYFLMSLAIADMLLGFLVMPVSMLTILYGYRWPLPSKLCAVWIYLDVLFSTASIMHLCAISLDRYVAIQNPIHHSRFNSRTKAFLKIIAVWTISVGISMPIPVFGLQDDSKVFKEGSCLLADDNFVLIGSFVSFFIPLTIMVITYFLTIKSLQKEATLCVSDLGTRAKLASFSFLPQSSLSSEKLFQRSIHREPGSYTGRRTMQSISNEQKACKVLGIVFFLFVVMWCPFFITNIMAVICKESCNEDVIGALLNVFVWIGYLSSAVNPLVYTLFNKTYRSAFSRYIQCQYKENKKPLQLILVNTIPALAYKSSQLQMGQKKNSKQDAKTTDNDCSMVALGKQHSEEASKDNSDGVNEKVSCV
- experiment.summary: Selectivity for human 5HT2A receptor over human 5HT2C receptor
measured.parameter: Ratio Ki
Answers are plain numbers.

Below are some molecules; for each one, tell me its Ratio Ki.
1. Cc1cc(F)ccc1/C=C/c1ccc(S(=O)(=O)c2ccccc2F)cn1
2. N#Cc1cc(F)ccc1/C=C/c1ccc(S(=O)(=O)c2ccccc2F)cn1
3. [O-][S+](c1ccccc1)c1ccc(/C=C/c2ccc(F)cc2F)nc1 (stereo in doubt; 30)
4. O=S(=O)(c1ccc(/C=C/c2ccc(F)cc2O)nc1)c1ccccc1F

Ans.
1: 27; 2: 2.1; 3: 38; 4: 3000

Below are some molecules; for each one, tell me its Ratio Ki.
1. O=S(=O)(c1ccc(F)cc1)C1(F)CCN(CCc2ccc(F)cc2F)CC1
2. O=S(=O)(c1ccc(/C=C/c2ccc(F)cc2Cl)nc1)c1ccccc1F
3. [O-][S+](c1ccc(/C=C/c2ccc(F)cc2)nc1)c1ccccc1F (stereo not given)
4. O=S(=O)(c1ccc(/C=C/c2ccccc2O)nc1)c1ccccc1F
5. [O-][S+](c1ccccc1)c1ccc(/C=C/c2ccc(F)cc2)nc1 (stereo not given)
6. [O-][S+](c1ccccc1)c1ccc(/C=C/c2ccc(F)cc2F)nc1 (single isomer, unassigned; form 1)
7. [O-][S+](c1ccccc1)c1ccc(/C=C/c2ccc(F)cc2F)nc1 (single isomer, unassigned; form 2)
8. O=S(=O)(c1ccc(/C=C/c2ccc(F)cc2F)nc1)c1ccccc1F

Ans.
[460, 36, 35, 220, 26, 80, 36, 160]

* * *

- target.desc: D(2) dopamine receptor (Homo sapiens, UniProt P14416)
- Sequence (P14416 whole entry): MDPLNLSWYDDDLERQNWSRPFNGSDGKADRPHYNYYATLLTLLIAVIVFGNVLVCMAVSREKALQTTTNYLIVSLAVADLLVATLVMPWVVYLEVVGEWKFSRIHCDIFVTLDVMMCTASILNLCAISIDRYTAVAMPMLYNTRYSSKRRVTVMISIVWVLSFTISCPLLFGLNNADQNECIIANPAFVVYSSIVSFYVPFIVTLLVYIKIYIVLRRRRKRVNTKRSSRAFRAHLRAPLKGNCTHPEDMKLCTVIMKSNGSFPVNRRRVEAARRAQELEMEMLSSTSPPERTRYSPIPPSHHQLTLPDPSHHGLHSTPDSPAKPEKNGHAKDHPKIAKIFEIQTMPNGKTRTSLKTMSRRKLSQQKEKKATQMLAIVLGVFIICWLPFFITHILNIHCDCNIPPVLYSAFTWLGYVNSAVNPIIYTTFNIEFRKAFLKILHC
- experiment.summary: Displacement of [3H]spiperone from human dopamine D2 receptor expressed in CHO cells
- Assay type: cell-based
Consider the following compounds; for each one, report its Ki.

The following compounds have reported results that may help.
INSERT INTO results (compound, result) VALUES
  ('COc1cc(F)ccc1/C=C/c1ccc(S(=O)(=O)c2ccccc2F)cn1', '> 2 µM'),
  ('[O-][S+](c1ccc(/C=C/c2ccc(F)cc2)nc1)c1ccccc1F (stereo unspecified)', '> 2 µM'),
  ('Cc1cc(F)ccc1/C=C/c1ccc(S(=O)(=O)c2ccccc2F)cn1', '> 2 µM'),
  ('O=S(=O)(c1ccc(/C=C/c2ccc(F)cc2)nc1)c1ccccc1F', '> 1 µM'),
  ('[O-][S+](c1ccc(/C=C/c2ccc(F)cc2F)nc1)c1ccccc1F (stereo unspecified)', '> 2 µM');

Below are some compounds; for each one, tell me its Ki.
1. O=S(=O)(c1ccc(F)cc1)c1ccc(CCc2ccc(F)cc2)cn1
2. O=S(=O)(c1ccc(F)cc1)c1ccc(CCc2ccc(F)cc2)nc1

Ans.
1. > 1 µM
2. > 1 µM

* * *

- target.desc: 5-hydroxytryptamine receptor 2C (Homo sapiens, UniProt P28335)
- Sequence (P28335 whole entry): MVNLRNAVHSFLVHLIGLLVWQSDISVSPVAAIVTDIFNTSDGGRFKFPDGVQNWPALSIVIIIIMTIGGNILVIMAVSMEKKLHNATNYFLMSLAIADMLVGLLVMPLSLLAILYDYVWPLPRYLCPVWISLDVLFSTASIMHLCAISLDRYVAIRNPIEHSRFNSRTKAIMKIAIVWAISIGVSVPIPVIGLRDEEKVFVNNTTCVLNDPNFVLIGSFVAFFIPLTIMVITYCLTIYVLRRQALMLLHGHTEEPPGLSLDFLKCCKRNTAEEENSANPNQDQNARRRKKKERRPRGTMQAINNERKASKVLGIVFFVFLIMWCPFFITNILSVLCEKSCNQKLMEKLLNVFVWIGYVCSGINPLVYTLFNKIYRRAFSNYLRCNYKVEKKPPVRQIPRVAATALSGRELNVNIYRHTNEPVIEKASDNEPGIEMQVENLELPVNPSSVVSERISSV
pKi: −log10 of the molar value.
If the reported pKi equals or exceeds 6, assign True. If not, assign False.

Would you please look over these solved cases?
INSERT INTO measurements (compound, target_desc, label) VALUES
  ('O=S(=O)(c1ccc(/C=C/c2ccc(F)cc2O)nc1)c1ccccc1F', '5-hydroxytryptamine receptor 2C (Homo sapiens, UniProt P28335)', 'True'),
  ('[O-][S+](c1ccc(/C=C/c2ccc(F)cc2)nc1)c1ccccc1F (stereo unspecified)', '5-hydroxytryptamine receptor 2C (Homo sapiens, UniProt P28335)', 'True'),
  ('O=S(=O)(c1ccc(/C=C/c2ccc(F)cc2F)nc1)c1ccccc1F', '5-hydroxytryptamine receptor 2C (Homo sapiens, UniProt P28335)', 'True'),
  ('O=S(=O)(c1ccccc1)c1ccc(/C=C/c2ccc(F)cc2F)nc1', '5-hydroxytryptamine receptor 2C (Homo sapiens, UniProt P28335)', 'False'),
  ('N#Cc1cc(F)ccc1/C=C/c1ccc(S(=O)(=O)c2ccccc2F)cn1', '5-hydroxytryptamine receptor 2C (Homo sapiens, UniProt P28335)', 'True');

Qu. Is reported pKi greater than or equal to 6 here: [O-][S+](c1ccccc1)c1ccc(/C=C/c2ccc(F)cc2F)nc1 (stereo in doubt; 30)
Ans. True

Qu. Continue with O=S(=O)(c1ccc(/C=C/c2ccc(F)cc2)nc1)c1cccc(F)c1
Ans. False

Qu. Continue with Cc1cc(F)ccc1/C=C/c1ccc(S(=O)(=O)c2ccccc2F)cn1
Ans. True

Qu. Continue with O=S(=O)(c1ccccc1)c1ccc(/C=C/c2ccc(F)cc2)nc1
Ans. False

Qu. Continue with O=S(=O)(c1ccc(F)cc1)c1ccc(CCc2ccc(F)cc2)nc1
Ans. False

* * *

Consider the following compounds; for each one, report its pKi.
- target.desc: D(2) dopamine receptor (Homo sapiens, UniProt P14416)
- experiment.summary: Displacement of [3H]spiperone from human dopamine D2 receptor expressed in CHO cells
- Assay type: cell-based
- experimental.setup: cho
pKi: −log10 of the molar value.

INSERT INTO assay_data (compound, result) VALUES
  ('[O-][S+](c1ccccc1)c1ccc(/C=C/c2ccc(F)cc2F)nc1 (single isomer, unassigned; form 1)', '< 5.70');

Let us examine a further case.
Qu. State its pKi on D(2) dopamine receptor (Homo sapiens, UniProt P14416): [O-][S+](c1ccccc1)c1ccc(/C=C/c2ccc(F)cc2F)nc1 (stereo in doubt; 30)
Ans. < 5.70

* * *

For reference, pKi measured on 5-hydroxytryptamine receptor 2A (Homo sapiens):
Answers are plain numbers, as −log10 of the molar value.

The following molecules have reported results that may help.
INSERT INTO results (molecule, target_desc, measured_parameter, result) VALUES
  ('[O-][S+](c1ccccc1)c1ccc(/C=C/c2ccc(F)cc2)nc1 (stereo not given)', '5-hydroxytryptamine receptor 2A (Homo sapiens)', 'pKi', 8.11),
  ('O=S(=O)(c1ccccc1)c1ccc(/C=C/c2ccc(F)cc2F)nc1', '5-hydroxytryptamine receptor 2A (Homo sapiens)', 'pKi', 9.07),
  ('Cc1cc(F)ccc1/C=C/c1ccc(S(=O)(=O)c2ccccc2F)cn1', '5-hydroxytryptamine receptor 2A (Homo sapiens)', 'pKi', 8.09),
  ('[O-][S+](c1ccccc1)c1ccc(/C=C/c2ccc(F)cc2F)nc1 (stereo in doubt; 30)', '5-hydroxytryptamine receptor 2A (Homo sapiens)', 'pKi', 9.10);

Below are some molecules; for each one, tell me its pKi.
1. COc1cc(F)ccc1/C=C/c1ccc(S(=O)(=O)c2ccccc2F)cn1
2. O=S(=O)(c1ccc(/C=C/c2ccc(F)cc2Cl)nc1)c1ccccc1F
3. N#Cc1cc(F)ccc1/C=C/c1ccc(S(=O)(=O)c2ccccc2F)cn1
4. [O-][S+](c1ccc(/C=C/c2ccc(F)cc2F)nc1)c1ccccc1F (stereo not given)
5. O=S(=O)(c1ccc(/C=C/c2ccncc2)nc1)c1ccccc1F
6. O=S(=O)(c1ccc(F)cc1)c1ccc(/C=C/c2ccc(F)cc2)cn1

Ans.
1. 7.19
2. 8.74
3. 8.00
4. 8.46
5. 6.10
6. 7.55

Below are some molecules; for each one, tell me its pKi.
1. O=S(=O)(c1ccc(/C=C/c2ccc(F)cc2O)nc1)c1ccccc1F
2. O=S(=O)(c1ccc(F)cc1)c1ccc(CCc2ccc(F)cc2)cn1
3. O=S(=O)(c1ccc(/C=C/c2ccc(F)cc2F)nc1)c1ccccc1F
4. O=S(=O)(c1ccc(/C=C/c2ccccc2O)nc1)c1ccccc1F
5. [O-][S+](c1ccccc1)c1ccc(/C=C/c2ccc(F)cc2F)nc1 (single isomer, unassigned; form 1)

Ans.
1: 9.72; 2: 7.72; 3: 8.59; 4: 8.44; 5: 7.52
